Reference source for all entries: patent US5952530A

Assay: Partition of polar organic molecules between hexane and acetonitrile
Type: physicochemical
Settings: hexane/acetonitrile equal volumes; GC; polar molecule wt%: propionaldehyde 7.5, butyraldehyde 5.2, valeraldehyde 5.5, 3-pentenenitrile 4.7
measured parameter: Kpartition
Respond with the number and no other words.

Previously resolved entries follow.
Ask: # input molecule: `CCCC=O` ; wanted: its Kpartition
Result: 3.2

Ask: Now the same for `CCC=O`
Result: 9.2

New cases:
Ask: # input molecule: `CCCCC=O` ; wanted: its Kpartition
Result: 2.0

Ask: Now the same for `CC=CCC#N`
Result: 50
